Test system: Gardner 6C3HED lymphosarcoma ip, C3AKF1 mice, survival T/C
Assay: NCI In Vivo Anticancer Drug Screen. Data for tumor model Lymphosarcoma Gardner 6C3HED (intraperitoneal) in C3AKF1 (CHKRF1) mice
Settings: endpoint: survival time, mean or median; dose: 40.0 mg/kg/injection; schedule: Q01DX010 (ip); vehicle: saline
Description: The antitumor activity of compounds was measured in mice bearing transplantable tumors. Survival or tumor size were measured and the results are expressed as the measurement made in the treated group (T) divided by the measurement made in the vehicle treated control group (C). The tumor model used in this assay is Lymphosarcoma Gardner 6C3HED (intraperitoneal) in C3AKF1 (CHKRF1) mice
Inconclusive results and toxic doses are left out. How the source made its calls: active means survival T/C of 150% or more; inactive means T/C below 125% in these data.
The reply should be one of these categories: Y for active, N for inactive

Check out these entries, answers already filled in.
1. Cn1c(N)nc2nc[nH]c2c1=S    N
2. OCC1OC(n2cnc3c(=S)nc[nH]c32)C(O)C1O (stereo not given)    N
3. C[n+]1c2ccccc2nc2c(N)cc(N)cc21    N
4. CN(N=O)C(=O)NC(C=O)C(O)C(O)C(O)CO (stereo not given)    Y

What call does the record list for O=c1[nH]cc(F)c(=O)[nH]1 ?
N
